- Tested on: platelets in platelet-rich plasma
- assay-comment: Thrombin-induced platelet aggregation in platelet-rich plasma
- Assay type: cell-based, human
- conditions: Homo sapiens, Platelet, multiple values = individual measurements
pIC50: −log10 of the molar value.
reported-metric: pIC50

These solved cases illustrate the format of a correct answer.
Query: Query for platelets in platelet-rich plasma: what pIC50 does the record show for COc1c(N2CCOCC2)cc(C(=O)CN2Cc3cc4c(cc3C2=N)OCc2nccnc2CO4)cc1C(C)(C)C [Compound 58] ?
Response: 6.10

Query: Moving on to the next molecule: CC(C)(C)c1cc(C(=O)CN2Cc3cc4c(cc3C2=N)OCc2ccccc2CO4)cc(C(C)(C)C)c1O [Compound 47]
Response: 5.60

P. CC(C)(C)c1cc(C(=O)CN2Cc3cc4c(cc3C2=N)OCc2nccnc2CO4)cc(C(C)(C)C)c1O [Compound 77]
Q. CC(C)(C)c1cc(C(=O)CN2Cc3cc4c(cc3C2=N)OCc2cc([N+](=O)[O-])ccc2CO4)cc(C(C)(C)C)c1O [Compound 84]
Query: Decide: P or Q , by lowest recorded pIC50. Reply briefly: the label of your chosen item.
Response: Q
(Q: 5.60, P: 5.91)

----------
- target-or-test-system: thrombin receptor (PAR-1) (Homo sapiens, UniProt P25116)
- Construct: Human aortic smooth muscle cells (HSMC) were purchased from Cascade Biologics; host or cells: human aortic smooth muscle cells (HSMC)
- Sequence (P25116 22-425): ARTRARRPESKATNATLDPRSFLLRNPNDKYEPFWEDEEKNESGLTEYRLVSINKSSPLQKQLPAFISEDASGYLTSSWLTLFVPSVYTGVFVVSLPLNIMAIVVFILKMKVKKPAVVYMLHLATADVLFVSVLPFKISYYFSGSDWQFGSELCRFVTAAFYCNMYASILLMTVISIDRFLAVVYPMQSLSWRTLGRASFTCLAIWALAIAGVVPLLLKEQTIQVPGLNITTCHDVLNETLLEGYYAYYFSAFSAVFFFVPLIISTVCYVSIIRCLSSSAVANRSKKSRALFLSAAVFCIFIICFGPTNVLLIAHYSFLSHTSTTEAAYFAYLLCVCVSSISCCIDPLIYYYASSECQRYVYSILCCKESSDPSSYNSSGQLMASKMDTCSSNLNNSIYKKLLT
- assay-comment: FLIPR-based calcium-flux assay with human smooth muscle cells (Har peptide agonist)
- Type: cell-based
- conditions: HSMC; 30 nM Har (PAR1) peptide agonist; 80-min drug incubation; multiple values = individual measurements
reported-metric: IC50 (µM)

Query: Reported IC50 for `COC(=O)c1cc2c(cc1C(=O)OC)COc1cc3c(cc1OC2)CN(CC(=O)c1cc(N2CCOCC2)c(OC)c(C(C)(C)C)c1)C3=N` : what is it?
Response: 1.1

Query: Moving on to the next compound: `COC(=O)c1cc2c(cc1C(=O)OC)COc1cc3c(cc1OC2)CN(CC(=O)c1cc(C(C)(C)C)c(O)c(C(C)(C)C)c1)C3=N`
Response: 0.35

a. CC(C)(C)c1cc(C(=O)CN2Cc3cc4c(cc3C2=N)OCC(CC=O)CO4)cc(C(C)(C)C)c1O (centres unmarked)
b. COc1c(N2CCOCC2)cc(C(=O)CN2Cc3cc4c(cc3C2=N)OCc2cc3c(cc2CO4)OCO3)cc1C(C)(C)C
Query: Decide: a or b , by lowest recorded IC50. Reply briefly: the label of your chosen item.
Response: b
(b: 0.371 µM, a: 0.78 µM)

1. CC(C)(C)c1cc(C(=O)CN2Cc3cc4c(cc3C2=N)OCCCCO4)cc(C(C)(C)C)c1O
2. CC(C)(C)c1cc(C(=O)CN2Cc3cc4c(cc3C2=N)OCC(CCN2CCOCC2)CO4)cc(C(C)(C)C)c1O (centres unmarked)
3. COc1c(N2CCOCC2)cc(C(=O)CN2Cc3cc4c(cc3C2=N)OCc2nccnc2CO4)cc1C(C)(C)C
4. CC1(C)COc2cc3c(cc2OC1)C(=N)N(CC(=O)c1cc(C(C)(C)C)c(O)c(C(C)(C)C)c1)C3
Query: Order the entries by their reported IC50, beginning at the minimum. Hello, could you send the labels back in the order asked? Thank you.
Response: 1, 3, 4, 2
(1: 0.032 µM, 3: 0.103 µM, 4: 0.16 µM, 2: 0.551 µM)

A. COc1c(C(C)(C)C)cc(C(=O)CN2Cc3cc4c(cc3C2=N)OCc2cccnc2CO4)cc1C(C)(C)C
B. COc1c(N2CCOCC2)cc(C(=O)CN2Cc3cc4c(cc3C2=N)OCc2ncccc2CO4)cc1C(C)(C)C
Query: Decide: A or B , by lowest recorded IC50. Reply briefly: the label of your chosen item.
Response: B

----------
- Tested on: platelets in platelet-rich plasma
- assay-comment: Thrombin-induced platelet aggregation in platelet-rich plasma
- Assay type: cell-based, human
- conditions: Homo sapiens, Platelet, multiple values = individual measurements
reported-metric: IC50

These solved cases illustrate the format of a correct answer.
Query: Reported IC50 for `COc1c(N2CCOCC2)cc(C(=O)CN2Cc3cc4c(cc3C2=N)OCc2cc(C)c(C)cc2CO4)cc1C(C)(C)C` : what is it?
Response: > 10 µM

Query: Moving on to the next compound: `COc1c(N2CCOCC2)cc(C(=O)CN2Cc3cc4c(cc3C2=N)OCC(F)(F)CO4)cc1C(C)(C)C`
Response: > 10 µM

Switching to the query record.
Query: Reported IC50 for `COc1c(C(C)(C)C)cc(C(=O)CN2Cc3cc4c(cc3C2=N)OCc2cccnc2CO4)cc1C(C)(C)C` : what is it?
Response: > 10 µM

----------
We begin with a simple list: items and their reported IC50.
- target-or-test-system: thrombin receptor (PAR-1) (Homo sapiens, UniProt P25116)
- Construct: Human aortic smooth muscle cells (HSMC) were purchased from Cascade Biologics; host or cells: human aortic smooth muscle cells (HSMC)
- Sequence (P25116 22-425): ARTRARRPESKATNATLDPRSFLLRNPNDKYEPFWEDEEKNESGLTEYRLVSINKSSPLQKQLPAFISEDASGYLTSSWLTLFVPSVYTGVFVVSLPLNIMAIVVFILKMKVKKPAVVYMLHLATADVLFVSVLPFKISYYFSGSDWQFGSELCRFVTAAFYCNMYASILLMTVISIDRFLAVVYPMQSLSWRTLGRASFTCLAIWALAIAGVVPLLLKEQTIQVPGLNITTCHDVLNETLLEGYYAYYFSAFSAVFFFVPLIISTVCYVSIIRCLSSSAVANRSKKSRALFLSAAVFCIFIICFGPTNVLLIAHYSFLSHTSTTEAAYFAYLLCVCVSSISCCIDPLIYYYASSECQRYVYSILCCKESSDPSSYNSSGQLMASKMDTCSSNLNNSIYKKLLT
- assay-comment: FLIPR-based calcium-flux assay with human smooth muscle cells (Har peptide agonist)
- Format: cell-based
- conditions: HSMC; 30 nM Har (PAR1) peptide agonist; 80-min drug incubation; multiple values = individual measurements

Query: Reported IC50 for CNCCC1COc2cc3c(cc2OC1)C(=N)N(CC(=O)c1cc(C(C)(C)C)c(O)c(C(C)(C)C)c1)C3 (stereo not shown) : what is it?
Response: > 3 µM

Query: Moving on to the next compound: CN1CCN(CCC2COc3cc4c(cc3OC2)C(=N)N(CC(=O)c2cc(C(C)(C)C)c(O)c(C(C)(C)C)c2)C4)CC1 (stereo not shown)
Response: > 3 µM

Query: Moving on to the next compound: CC(C)(C)c1cc(C(=O)CN2Cc3cc4c(cc3C2=N)OCC(CCN2CCCC2)CO4)cc(C(C)(C)C)c1O (stereo not shown)
Response: > 3 µM

Switching to the query record.
Query: Reported IC50 for CN(C)CCC1COc2cc3c(cc2OC1)C(=N)N(CC(=O)c1cc(C(C)(C)C)c(O)c(C(C)(C)C)c1)C3 (stereo not shown) : what is it?
Response: > 1 µM
